FYI, the data here is from the supplement of paper PMC6757056.

B1: library; a variant is named by its letters at N, in order (parent)
chain: GCUGUCACCGGUGCUUGGUACGUUAUAUUCAGCCGGUCUGAUGAGUCUNNNNNNAGACGAAACAGC

# Variants of: B1
# testName: FACS-Seq fitted mean relative fluorescence mCherry/BFP with ligand (log10 relative fluorescence); HEK293T overexpressing SLC46A1; ligand concentration (+) FACS-Seq: 6 mM; higher = higher reporter protein expression
# conditionLabel: with (6R,S)-folinic acid; ligand present: yes
Threshold rule: FACS-Seq fitted mean (log10) greater than or equal to 0.4 is label 1; below that, label 0.

mutationid=GGAGGU assignedlabel="label 1"
mutationid=AUCGCU assignedlabel="label 0"
mutationid=CCUAAG assignedlabel="label 0"
mutationid=AAUAUC assignedlabel="label 0"
mutationid=UAGGAU assignedlabel="label 0"
mutationid=CUUGUG assignedlabel="label 0"
mutationid=UGGUUG assignedlabel="label 1"
mutationid=GCACAA assignedlabel="label 0"
mutationid=GGCACC assignedlabel="label 0"
mutationid=AUAAGU assignedlabel="label 1"
mutationid=UCACCG assignedlabel="label 0"
mutationid=AAGCCU assignedlabel="label 0"
mutationid=UGCAGA assignedlabel="label 0"
mutationid=UCGGCC assignedlabel="label 1"
mutationid=CGUAUU assignedlabel="label 0"
mutationid=AACCCC assignedlabel="label 1"
mutationid=UAAAGA assignedlabel="label 0"
mutationid=UAGCCU assignedlabel="label 0"
mutationid=CUCGCU assignedlabel="label 0"
mutationid=GGAAUC assignedlabel="label 0"
mutationid=GUUGAC assignedlabel="label 1"
mutationid=UAUUGG assignedlabel="label 0"
mutationid=AAGGGA assignedlabel="label 0"
mutationid=UGCAUG assignedlabel="label 1"
mutationid=AAAGUG assignedlabel="label 0"
mutationid=GGGGAA assignedlabel="label 1"
mutationid=CAUCGC assignedlabel="label 0"
mutationid=UGCCAC assignedlabel="label 1"
mutationid=AGAUGG assignedlabel="label 1"
mutationid=GGUAUG assignedlabel="label 0"
mutationid=AACAAU assignedlabel="label 0"
mutationid=AAGAAA assignedlabel="label 0"
mutationid=GAGAGU assignedlabel="label 1"
mutationid=UAACGG assignedlabel="label 1"
mutationid=GUCAAG assignedlabel="label 0"
mutationid=AUAUAG assignedlabel="label 0"
mutationid=ACACCG assignedlabel="label 0"
mutationid=CGCAGC assignedlabel="label 1"
mutationid=GGUGGA assignedlabel="label 1"
mutationid=AAGAGG assignedlabel="label 1"
mutationid=AAACUG assignedlabel="label 0"
mutationid=GUCUAU assignedlabel="label 1"
mutationid=CACAUA assignedlabel="label 0"
mutationid=GCGAAU assignedlabel="label 0"
